Test system: Plasmodium falciparum
Test: GSK_TCMDC: Inhibition of Plasmodium falciparum Dd2 in whole red blood cells, using parasite LDH activity as an index of growth. Test compounds present at 2uM
Format: functional
Label rule, in plain words: Inhibition of 50% and up is MET, under 50% is NOT MET.

>>> label_class("CN(C)CCC(O)(c1ccc(Br)cc1)c1cccnc1 (stereo not given)")
"NOT MET"
>>> label_class("CC1(C)[C@H]2CC[C@@H](CNc3nc(NCCc4c[nH]cn4)nc(NCc4cc(F)ccc4F)n3)[C@@H]1C2")
"MET"
>>> label_class("CC[C@H](C)CNC(=O)c1cncc(-c2ccc(CNCC3CNCCCO3)cc2)c1.O=C(O)C(F)(F)F (stereo not given in full)")
"NOT MET"
>>> label_class("Cl.O=c1cc(NCCCNCc2ccc(Cl)c(Cl)c2)[nH]c2ccc(Cl)cc12")
"MET"
>>> label_class("CCCN1CCC=C(c2cccc(Nc3nccc(Nc4cc(OC)ccc4C)n3)c2)C1.Cl")
"NOT MET"
